- TARGET SYSTEM: PDGFRα (Homo sapiens (Human))
- Sequence (P16234 24-1089): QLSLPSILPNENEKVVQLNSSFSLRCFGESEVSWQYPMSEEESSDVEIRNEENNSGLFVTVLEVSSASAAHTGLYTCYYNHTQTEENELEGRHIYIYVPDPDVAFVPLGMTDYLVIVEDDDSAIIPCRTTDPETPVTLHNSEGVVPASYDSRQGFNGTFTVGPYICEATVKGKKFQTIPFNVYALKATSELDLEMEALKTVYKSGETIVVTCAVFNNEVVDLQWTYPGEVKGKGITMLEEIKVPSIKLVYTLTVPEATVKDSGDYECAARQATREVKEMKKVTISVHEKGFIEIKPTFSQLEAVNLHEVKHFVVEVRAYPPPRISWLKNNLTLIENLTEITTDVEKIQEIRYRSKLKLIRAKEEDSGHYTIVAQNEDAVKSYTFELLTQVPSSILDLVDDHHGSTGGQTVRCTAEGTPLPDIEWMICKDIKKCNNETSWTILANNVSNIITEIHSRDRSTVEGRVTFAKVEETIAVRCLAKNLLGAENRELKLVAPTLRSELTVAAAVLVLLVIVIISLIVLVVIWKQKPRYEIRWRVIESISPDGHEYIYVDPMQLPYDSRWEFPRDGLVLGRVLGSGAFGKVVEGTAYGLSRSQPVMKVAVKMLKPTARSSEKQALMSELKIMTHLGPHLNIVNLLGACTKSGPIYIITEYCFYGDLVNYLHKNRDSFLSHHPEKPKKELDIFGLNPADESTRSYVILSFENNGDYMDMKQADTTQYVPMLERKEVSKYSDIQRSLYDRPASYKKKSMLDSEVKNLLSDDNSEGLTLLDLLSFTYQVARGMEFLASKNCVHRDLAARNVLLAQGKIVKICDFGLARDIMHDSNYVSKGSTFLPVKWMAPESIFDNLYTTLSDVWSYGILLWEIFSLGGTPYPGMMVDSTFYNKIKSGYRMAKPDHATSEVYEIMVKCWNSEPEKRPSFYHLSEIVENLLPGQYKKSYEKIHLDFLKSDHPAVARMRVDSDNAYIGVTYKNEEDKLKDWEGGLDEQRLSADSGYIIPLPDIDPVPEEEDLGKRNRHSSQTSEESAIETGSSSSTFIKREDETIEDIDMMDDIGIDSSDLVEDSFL
- ASSAY: PDGFRα kinase enzyme assay (Promega PDGFRα Kinase Enzyme System, ADP-Glo)
- Assay type: biochemical
- CONDITION: 11-point dose response, 10,000 nM to 0.169 nM; 150 uM ATP; BLQ = below limit of quantitation; read-out: IC50 Values on PDGFRα Kinase Inhibition, IC50
MEASURED QUANTITY: log10 IC50 (log10 of the value in nM)
// do not treat as linear: log10 of IC50, unit nM

- MOLECULE: "Cn1cc(-c2ccc3c(N4CCN(S(=O)(=O)NCc5ccc(Cl)cc5)CC4)cnn3c2)cn1 [Compound 292]"
  MEASURED QUANTITY: "log10 IC50"
  NUMBER: 1.70
- MOLECULE: "C[C@@H](OC(=O)N1CCN(c2cnn3cc(-c4cnn(C)c4)ccc23)CC1)c1cccc(F)c1 [Compound 79]"
  MEASURED QUANTITY: "log10 IC50"
  NUMBER: 1.21

Now for another entry.
Entry under review: C[C@@H](OC(=O)N1CCN(c2cnn3cc(-c4cnn(C)c4)ccc23)CC1)c1cccc2ccccc12 [Compound 269] . Reported log10 IC50?
2.14

----------
- Tested on: Oligodendrocyte progenitor cells (OPCs)
- ASSAY: In vitro OPC differentiation assay, GPR17 expression (immunocytochemistry)
- CONDITION: 5 μM (10× concentration, final 0.5 μM); 72 hours; fold change over vehicle
GPR17 Fold Induction (Over Vehicle; 5 μM) class ranges: low (below 4), middle (4 to below 5), high (5 or more)

Here are 5 molecules together with their reported answers.
- MOLECULE: "Cn1cc(-c2ccc3c(N4CCN(c5ncc(CN6CCCCC6)cn5)CC4)cnn3c2)cn1"
  QUALITATIVE LABEL: "middle"
- MOLECULE: "CN(C)CCn1cc(-c2ccc3c(N4CCN(c5ncc(Cc6ccccc6)cn5)CC4)cnn3c2)cn1"
  QUALITATIVE LABEL: "high"
- MOLECULE: "Cn1cc(-c2ccc3c(N4CCN(C(=O)OC(C)(C)C)CC4)cnn3c2)cn1"
  QUALITATIVE LABEL: "middle"
- MOLECULE: "Cn1cc(-c2cn3ncc(N4CCN(c5ncc(Cc6ccccc6)cn5)CC4)c3cn2)cn1"
  QUALITATIVE LABEL: "low"
- MOLECULE: "Cn1cc(-c2ccc3c(N4CCN(c5ncccn5)CC4)cnn3c2)cn1"
  QUALITATIVE LABEL: "low"

Bin this entry: Cn1cc(-c2ccc3c(N4CCN(C(=O)OCCc5ccccc5)CC4)cnn3c2)cn1
low

Bin this entry: Cn1cc(-c2ccc3c(N4CCC(c5ncc(Cc6ccccc6)cn5)C4)cnn3c2)cn1 (stereo not shown)
high

Bin this entry: COCCn1cc(-c2ccc3c(N4CCN(c5ncc(Cc6ccccc6)cn5)CC4)cnn3c2)cn1
low

Bin this entry: Cn1cc(-c2ccc3c(N4CCN(c5ncc(C(C)(N)c6ccc(F)cc6)cn5)CC4)cnn3c2)cn1 (stereo not shown)
low

Bin this entry: C[C@@H](OC(=O)N1CCN(c2cnn3cc(-c4cnn(C)c4)ccc23)CC1)c1ccccc1
high

Bin this entry: Cn1cc(-c2ccc3c(N4CCN(c5ncc(Cc6ccccc6)cn5)CC4)cnn3n2)cn1
low

Bin this entry: CC(C)OC(=O)N1CCN(c2cnn3cc(-c4cnn(C)c4)ccc23)CC1
high

Bin this entry: Cn1cc(-c2ccc3c(N4CCN(C(=O)OCc5ccccc5)CC4)cnn3c2)cn1
middle

Bin this entry: Cn1cc(-c2ccc3c(N4CCN(C(=O)Cc5ccccc5)CC4)cnn3c2)cn1
low
